Each entry below carries its reported Affinity increase.
target: T1, AFP158/HLA-A*02:01 complex (human); experiment: SPR; vs AS170036 VL1VH1;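 further: crude scFv captured on sensor chip, peptide–HLA complex flowed over at several concentrations, KD estimated from association and dissociation kinetic rates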
T1 construct: biotinylated on the BSP by BirA for ELISA and panning; also called biotinylated AFP158/HLA-A*02:01 complex; Bio-AFP158
Just the number plus its unit, please.

Give a short answer stating reported Affinity increase for AS170036 VL1VH1 HD102M (scFv) scFv: QSALTQPRSVSGSPGQSVTISCAGTSSDVGSENYVSWYQQHPGKAPKLMIYQVNKRASGVPDRFSGSKSGNTASLTISGLQAEDEADYYCASYRSSDHNIVFGGGTKLTVLGGGGSGGGGSGGGGSEVQLVESGGGLVQPGGSLRLSCAASGFTFSSYAMSWVRQAPGKGLEWVSTINSGTGSPYYADSVKGRFTISRDNSKNTLYLQMNSLRAEDTAVYYCAKNFFMGSWFLGPPAMDYWGQGTLVTVSSHHHHHH . 0.3 fold

Give a short answer stating reported Affinity increase for AS170036 VL1VH1-VHS57H (scFv) scFv: QSALTQPRSVSGSPGQSVTISCAGTSSDVGSENYVSWYQQHPGKAPKLMIYQVNKRASGVPDRFSGSKSGNTASLTISGLQAEDEADYYCASYRSSDHNIVFGGGTKLTVLGGGGSGGGGSGGGGSEVQLVESGGGLVQPGGSLRLSCAASGFTFSSYAMSWVRQAPGKGLEWVSTINSGTGHPYYADSVKGRFTISRDNSKNTLYLQMNSLRAEDTAVYYCAKNFFDGSWFLGPPAMDYWGQGTLVTVSSHHHHHH . 6.9 fold

Give a short answer stating reported Affinity increase for AS170036 VL1VH1-VHG56Y (scFv) scFv: QSALTQPRSVSGSPGQSVTISCAGTSSDVGSENYVSWYQQHPGKAPKLMIYQVNKRASGVPDRFSGSKSGNTASLTISGLQAEDEADYYCASYRSSDHNIVFGGGTKLTVLGGGGSGGGGSGGGGSEVQLVESGGGLVQPGGSLRLSCAASGFTFSSYAMSWVRQAPGKGLEWVSTINSGTYSPYYADSVKGRFTISRDNSKNTLYLQMNSLRAEDTAVYYCAKNFFDGSWFLGPPAMDYWGQGTLVTVSSHHHHHH . 6.6 fold

Give a short answer stating reported Affinity increase for AS170036 VL1VH1 HP110I (scFv) scFv: QSALTQPRSVSGSPGQSVTISCAGTSSDVGSENYVSWYQQHPGKAPKLMIYQVNKRASGVPDRFSGSKSGNTASLTISGLQAEDEADYYCASYRSSDHNIVFGGGTKLTVLGGGGSGGGGSGGGGSEVQLVESGGGLVQPGGSLRLSCAASGFTFSSYAMSWVRQAPGKGLEWVSTINSGTGSPYYADSVKGRFTISRDNSKNTLYLQMNSLRAEDTAVYYCAKNFFDGSWFLGPIAMDYWGQGTLVTVSSHHHHHH . 0.2 fold

Give a short answer stating reported Affinity increase for AS170036 VL1VH1-VHS57Q (scFv) scFv: QSALTQPRSVSGSPGQSVTISCAGTSSDVGSENYVSWYQQHPGKAPKLMIYQVNKRASGVPDRFSGSKSGNTASLTISGLQAEDEADYYCASYRSSDHNIVFGGGTKLTVLGGGGSGGGGSGGGGSEVQLVESGGGLVQPGGSLRLSCAASGFTFSSYAMSWVRQAPGKGLEWVSTINSGTGQPYYADSVKGRFTISRDNSKNTLYLQMNSLRAEDTAVYYCAKNFFDGSWFLGPPAMDYWGQGTLVTVSSHHHHHH . 2.4 fold
